Test: qHTS assay to identify small molecule antagonists of the estrogen receptor alpha (ER-alpha) signaling pathway using the BG1 cell line - cell viability counter screen (AID 743081);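 also: compound given together with 17beta-estradiol as the ER stimulus; nearly all actives have a fitted effect of over 45% in size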
Details: BG1Luc4E2 viability, CellTiter-Fluor, 22 h; series mostly up to 70.3 µM
Inconclusive results are not listed. Active and inactive are the calls of the source. Calls follow the shape of the dose curve; as a rule, active = well fitted cell-killing curve with a large enough effect in the repeat runs; inconclusive = weak or mixed curves, or effect the other way; inactive = flat fitted curve, though single readings scatter.
// one of 1.0 for active, 0.0 for inactive, no free text

In: Assay result, entry C[C@@H]1C[C@H]2O[C@@]3(O[C@@H]2C(C)(C)O)[C@H](O)[C@@]2(C)[C@@H]4CC[C@H]5C(C)(C)[C@@H](O[C@@H]6OC[C@@H](O)[C@H](O)[C@H]6O)CC[C@@]56C[C@@]46CC[C@]2(C)[C@@H]13 — outcome?
Out: 0.0

In: Assay result, entry Nc1ccc(N)c2c1C(=O)c1ccccc1C2=O — outcome?
Out: 1.0

In: Assay result, entry CCCCC(CC)CN1C(=O)C2C3C=CC(C3)C2C1=O (stereo not given) — outcome?
Out: 0.0

In: Assay result, entry O=C(O)C(S)C(S)C(=O)O (stereo not given) — outcome?
Out: 0.0

In: Assay result, entry C[C@H](CCC(=O)O)[C@H]1CC[C@H]2[C@@H]3CC[C@@H]4C[C@H](O)CC[C@]4(C)[C@H]3C[C@H](O)[C@]12C — outcome?
Out: 0.0

In: Assay result, entry CCCCCC[C@@H](O)C/C=C\CCCCCCCC(=O)OC — outcome?
Out: 0.0

In: Assay result, entry COS(=O)(=O)C(F)(F)F — outcome?
Out: 0.0

In: Assay result, entry CCCCCCCCCCCCCCOS(=O)(=O)O — outcome?
Out: 0.0

In: Assay result, entry NCc1ccccc1Sc1ccccc1CO — outcome?
Out: 0.0

In: Assay result, entry C[N+](C)(C)CCOC(=O)CCC(=O)OCC[N+](C)(C)C — outcome?
Out: 0.0

The values you see were collected from PubChem BioAssay (Tox21).
